Sourced from ChEMBL document CHEMBL3885861

- Species: Rattus norvegicus
- ASSAY_NAME: Open TG-GATES - Regimen: Daily Repeat
- Type: toxicity, organism-based, Sprague-Dawley
- Design: regimen Daily Repeat, gender Male, age 6 weeks
- RECORDED_CONDITIONS: in vivo, po, 300 mg/kg, […], tissue Blood, route gavage, dose level Middle, time 14 day
TEST_READOUT: Plat (x10_4/uL)
// units = x10_4/uL; emit number, no label

>  <MOL>
COC(=O)C1=C(C)NC(C)=C(C(=O)OC)C1c1ccccc1[N+](=O)[O-]

>  <RECORDED_MEASUREMENT>
117.6

$$$$
>  <MOL>
CCOc1ccc(NC(C)=O)cc1

>  <RECORDED_MEASUREMENT>
125.2

$$$$
>  <MOL>
CNC(=C[N+](=O)[O-])NCCSCc1ccc(CN(C)C)o1

>  <RECORDED_MEASUREMENT>
117.4

$$$$
>  <MOL>
O=C(OC[C@H]1O[C@@H](OC(=O)c2cc(O)c(O)c(OC(=O)c3cc(O)c(O)c(O)c3)c2)[C@H](OC(=O)c2cc(O)c(O)c(OC(=O)c3cc(O)c(O)c(O)c3)c2)[C@@H](OC(=O)c2cc(O)c(O)c(OC(=O)c3cc(O)c(O)c(O)c3)c2)[C@@H]1OC(=O)c1cc(O)c(O)c(OC(=O)c2cc(O)c(O)c(O)c2)c1)c1cc(O)c(O)c(OC(=O)c2cc(O)c(O)c(O)c2)c1

>  <RECORDED_MEASUREMENT>
123.3

$$$$
>  <MOL>
Cc1nnc2n1-c1ccc(Cl)cc1C(c1ccccc1Cl)=NC2

>  <RECORDED_MEASUREMENT>
113

$$$$

// next item, Plat requested
Need Plat, item CN/C(=N/CCSCc1nc[nH]c1C)NC#N
125.7

---

- Organism: Rattus norvegicus
- ASSAY_NAME: Open TG-GATES - Regimen: Daily Repeat
- Format: toxicity, organism-based, Sprague-Dawley
- Design: regimen Daily Repeat, gender Male, age 6 weeks
- RECORDED_CONDITIONS: in vivo, po, 300 mg/kg, […], tissue Blood, route gavage, dose level Middle, time 7 day
TEST_READOUT: Plat (x10_4/uL)
Enter your answer as a number in x10_4/uL; do not include the unit.

>  <MOL>
CCOc1ccc(NC(C)=O)cc1

>  <UNIT_NAME>
x10_4/uL

>  <RECORDED_MEASUREMENT>
122.3

$$$$

I have this compound here, COC(=O)C1=C(C)NC(C)=C(C(=O)OC)C1c1ccccc1[N+](=O)[O-] , and I need its recorded Plat.
128.9

Which Plat reading was recorded for the compound Cc1nnc2n1-c1ccc(Cl)cc1C(c1ccccc1Cl)=NC2 ?
124.7

// query Plat value for entry CN/C(=N/CCSCc1nc[nH]c1C)NC#N
127.8

Suppose we examine the compound CNC(=C[N+](=O)[O-])NCCSCc1ccc(CN(C)C)o1 ; what Plat value has been reported?
130.4

GET /values?readout=Plat&item= O=C(OC[C@H]1O[C@@H](OC(=O)c2cc(O)c(O)c(OC(=O)c3cc(O)c(O)c(O)c3)c2)[C@H](OC(=O)c2cc(O)c(O)c(OC(=O)c3cc(O)c(O)c(O)c3)c2)[C@@H](OC(=O)c2cc(O)c(O)c(OC(=O)c3cc(O)c(O)c(O)c3)c2)[C@@H]1OC(=O)c1cc(O)c(O)c(OC(=O)c2cc(O)c(O)c(O)c2)c1)c1cc(O)c(O)c(OC(=O)c2cc(O)c(O)c(O)c2)c1
123.2

---

- Species: Rattus norvegicus
- ASSAY_NAME: Open TG-GATES - Regimen: Single
- Format: toxicity, organism-based, Sprague-Dawley
- Parameters: regimen Single, gender Male, age 6 weeks
- RECORDED_CONDITIONS: in vivo, po, 0 mg/kg, 3 h, tissue Blood, route gavage, dose level Control
TEST_READOUT: Ht (%)
Reply numerically in %, unit not repeated.

Recorded Ht, per entry:
>  <COMPOUND>
CN(C)CCC(c1ccc(Cl)cc1)c1ccccn1 (stereo not drawn) [CHLORPHENIRAMINE]

>  <Ht, %>
39.4

$$$$
>  <COMPOUND>
NC1=NC(=O)C(c2ccccc2)O1 (stereo not drawn) [PEMOLINE]

>  <Ht, %>
38.2

$$$$
>  <COMPOUND>
CNC(=C[N+](=O)[O-])NCCSCc1ccc(CN(C)C)o1 [RANITIDINE]

>  <Ht, %>
39.6

$$$$
>  <COMPOUND>
CC(C)NNC(=O)c1ccncc1 [IPRONIAZID]

>  <Ht, %>
38.7

$$$$
>  <COMPOUND>
COC(=O)C1=C(C)NC(C)=C(C(=O)OC)C1c1ccccc1[N+](=O)[O-] [NIFEDIPINE]

>  <Ht, %>
41.5

$$$$
>  <COMPOUND>
Brc1ccccc1 [BROMOBENZENE]

>  <Ht, %>
39.4

$$$$
>  <COMPOUND>
CN1C(=O)CCS(=O)(=O)C1c1ccc(Cl)cc1 (stereo not drawn) [CHLORMEZANONE]

>  <Ht, %>
40.3

$$$$
>  <COMPOUND>
CN/C(=N/CCSCc1nc[nH]c1C)NC#N [CIMETIDINE]

>  <Ht, %>
37.4

$$$$
>  <COMPOUND>
CCCc1cc(=O)[nH]c(=S)[nH]1 [PROPYLTHIOURACIL]

>  <Ht, %>
39.8

$$$$
>  <COMPOUND>
CCOc1ccc(NC(C)=O)cc1 [PHENACETIN]

>  <Ht, %>
40.2

$$$$

Reported Ht, compound O=C(OC[C@H]1O[C@@H](OC(=O)c2cc(O)c(O)c(OC(=O)c3cc(O)c(O)c(O)c3)c2)[C@H](OC(=O)c2cc(O)c(O)c(OC(=O)c3cc(O)c(O)c(O)c3)c2)[C@@H](OC(=O)c2cc(O)c(O)c(OC(=O)c3cc(O)c(O)c(O)c3)c2)[C@@H]1OC(=O)c1cc(O)c(O)c(OC(=O)c2cc(O)c(O)c(O)c2)c1)c1cc(O)c(O)c(OC(=O)c2cc(O)c(O)c(O)c2)c1 [TANNIC ACID] : ____
38.5

Need Ht, item Cc1nnc2n1-c1ccc(Cl)cc1C(c1ccccc1Cl)=NC2 [TRIAZOLAM]
41.4

# Ht lookup, item Nc1c2c(nc3ccccc13)CCCC2 [TACRINE]
37.9

---

Measured MCV, listed per entry for reference.
- Organism: Rattus norvegicus
- ASSAY_NAME: Open TG-GATES - Regimen: Single
- Assay type: toxicity, organism-based, Sprague-Dawley
- Parameters: regimen Single, gender Male, age 6 weeks
- RECORDED_CONDITIONS: in vivo, po, 300 mg/kg, 9 h, tissue Blood, route gavage, dose level Middle
# value in fL; strip the unit string

Some entries whose results are on file:
>  <MOL>
CN/C(=N/CCSCc1nc[nH]c1C)NC#N

>  <UNIT_NAME>
fL

>  <RECORDED_MEASUREMENT>
62.6

$$$$
>  <MOL>
COC(=O)C1=C(C)NC(C)=C(C(=O)OC)C1c1ccccc1[N+](=O)[O-]

>  <UNIT_NAME>
fL

>  <RECORDED_MEASUREMENT>
63.7

$$$$

Looking for the measured MCV of O=C(OC[C@H]1O[C@@H](OC(=O)c2cc(O)c(O)c(OC(=O)c3cc(O)c(O)c(O)c3)c2)[C@H](OC(=O)c2cc(O)c(O)c(OC(=O)c3cc(O)c(O)c(O)c3)c2)[C@@H](OC(=O)c2cc(O)c(O)c(OC(=O)c3cc(O)c(O)c(O)c3)c2)[C@@H]1OC(=O)c1cc(O)c(O)c(OC(=O)c2cc(O)c(O)c(O)c2)c1)c1cc(O)c(O)c(OC(=O)c2cc(O)c(O)c(O)c2)c1 , can you help?
65.9

Looking for the measured MCV of Cc1nnc2n1-c1ccc(Cl)cc1C(c1ccccc1Cl)=NC2 , can you help?
65.5

For the molecule CNC(=C[N+](=O)[O-])NCCSCc1ccc(CN(C)C)o1 , what MCV is on record?
62.3

---

- Species: Rattus norvegicus
- ASSAY_NAME: Open TG-GATES - Regimen: Daily Repeat
- Type: toxicity, organism-based, Sprague-Dawley
- Parameters: regimen Daily Repeat, gender Male, age 6 weeks
- RECORDED_CONDITIONS: in vivo, po, 1000 mg/kg, […], route gavage, dose level High, time 14 day
Simple rule here: TERMINAL_BW less than 300 g is 1, otherwise -1.

>  <MOL>
CCOc1ccc(NC(C)=O)cc1

>  <ANSWER_LABEL>
1

$$$$
>  <MOL>
COC(=O)C1=C(C)NC(C)=C(C(=O)OC)C1c1ccccc1[N+](=O)[O-]

>  <ANSWER_LABEL>
-1

$$$$
>  <MOL>
Cc1nnc2n1-c1ccc(Cl)cc1C(c1ccccc1Cl)=NC2

>  <ANSWER_LABEL>
-1

$$$$

Hi there! Is TERMINAL_BW for CNC(=C[N+](=O)[O-])NCCSCc1ccc(CN(C)C)o1 below 300 g, do you know?
-1
